Measured EC50 of individual entries
target-or-test-system: hTLR8 (Homo sapiens, UniProt Q9NR97)
Construct: expressed in transfected cells; host or cells: HEK-Blue hTLR cells
Sequence (Q9NR97 27-1041): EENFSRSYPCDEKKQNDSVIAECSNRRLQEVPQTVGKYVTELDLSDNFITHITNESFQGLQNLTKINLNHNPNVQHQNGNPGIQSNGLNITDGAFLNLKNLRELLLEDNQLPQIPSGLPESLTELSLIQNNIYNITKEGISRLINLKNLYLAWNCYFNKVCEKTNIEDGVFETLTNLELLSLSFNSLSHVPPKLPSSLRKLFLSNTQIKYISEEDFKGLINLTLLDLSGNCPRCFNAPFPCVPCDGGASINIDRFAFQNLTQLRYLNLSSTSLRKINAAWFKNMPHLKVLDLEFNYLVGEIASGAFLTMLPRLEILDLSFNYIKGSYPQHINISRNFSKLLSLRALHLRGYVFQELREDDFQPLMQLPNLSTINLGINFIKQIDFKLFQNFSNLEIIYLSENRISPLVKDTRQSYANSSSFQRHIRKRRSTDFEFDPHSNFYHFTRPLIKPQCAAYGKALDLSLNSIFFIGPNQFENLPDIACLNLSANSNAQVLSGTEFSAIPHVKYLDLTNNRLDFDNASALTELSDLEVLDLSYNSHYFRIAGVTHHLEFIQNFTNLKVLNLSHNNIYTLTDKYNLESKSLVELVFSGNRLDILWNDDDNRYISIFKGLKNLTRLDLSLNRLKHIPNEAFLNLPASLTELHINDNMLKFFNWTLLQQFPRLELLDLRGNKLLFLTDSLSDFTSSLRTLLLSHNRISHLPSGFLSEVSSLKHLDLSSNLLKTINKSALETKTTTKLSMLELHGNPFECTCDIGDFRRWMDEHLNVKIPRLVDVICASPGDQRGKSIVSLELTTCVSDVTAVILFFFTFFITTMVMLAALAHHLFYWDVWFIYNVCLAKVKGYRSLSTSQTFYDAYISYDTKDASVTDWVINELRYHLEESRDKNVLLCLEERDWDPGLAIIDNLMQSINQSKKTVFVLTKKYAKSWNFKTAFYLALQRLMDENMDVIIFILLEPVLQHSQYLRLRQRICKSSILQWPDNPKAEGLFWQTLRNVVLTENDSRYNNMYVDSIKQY
assay-comment: agonistic activity on hTLR8, HEK-Blue hTLR cells, SEAP reporter (QUANTI-Blue)
Assay type: cell-based
assay-setup: HEK-Blue hTLR cells, SEAP reporter, OD650, cultured 1 day; read-out: TLR 8 EC50

The examples below pair each entry with its known result.
According to the records, this compound CCOCc1nc2c(N)nc3ccccc3c2n1C[C@@H](C)O[P@](=O)(N[C@@H](C)C(=O)OC(C)C)Oc1cccc(C)c1 (single isomer, unassigned) displays EC50 of 65 nM

According to the records, this compound CCOCc1nc2c(N)nc3ccccc3c2n1C[C@@H](C)O[P@@](=O)(N[C@@H](C)C(=O)OC(C)C)Oc1cccc2ccccc12 (single isomer, unassigned) displays EC50 of 9.2 nM

According to the records, this compound CCOCc1nc2c(N)nc3ccccc3c2n1C[C@@H](C)O[P@](=O)(N[C@@H](C)C(=O)OC(C)C)Oc1cccc(Cl)c1 (single isomer, unassigned) [Example 11B] displays EC50 of 71 nM

According to the records, this compound CCOCc1nc2c(N)nc3ccccc3c2n1C[C@@H](C)O[P@](=O)(N[C@@H](C)C(=O)OC(C)(C)C)Oc1ccc(C)cc1 (single isomer, unassigned) [Example 17B] displays EC50 of 2920 nM

Note: attention shifts to another entry.
According to the records, this compound CCOCc1nc2c(N)nc3ccccc3c2n1C[C@@H](C)O[P@](=O)(N[C@@H](C)C(=O)OC(C)C)Oc1ccc(C)cc1 (single isomer, unassigned) displays EC50 of 71 nM
